Tested on: OVCAR-5 ovarian
Assay: NCI tumour cell line growth inhibition, 48 h; in the data active = GI50 below about 0.43 µM; inactive = the rest
Non-standard residues stand in square brackets, D forms with d. Residues, ends and D or L forms follow the SMILES beside them. *: point of attachment. ONb = O=[N+]([O-])c1ccc(CO*)cc1; AllylGly = C=CC[CH](N)C(=O)O; Boc = CC(C)(C)OC(=O)*
Select the correct class. Options are YES = active, NO = inactive and nothing else.

Solved entries:
MOLECULE	ASSIGNED CLASS
CN(C)c1cccc2c(S(=O)(=O)N[C@H]3CC[C@H]4[C@@H]5CCc6cc(O)ccc6[C@H]5CC[C@]34C)cccc12	NO
CS(=O)(=O)CCNCc1nc(-c2ccc3ncnc(Nc4ccc(F)c(Cl)c4)c3c2)cs1	NO
COc1ccc(Cl)cc1Nc1nc(C(F)(F)F)ccc1C(=O)N/N=C/c1c(Cl)cccc1Cl	NO
Cc1ccc(-[n+]2c3cc(N)c(C)cc3nc3cc(C)c(Nc4ccccc4)cc32)cc1	YES
COc1cc2c(cc1OC)C(=O)/C(=C/c1cccc(OCC(=O)c3ccccc3)c1)C2	NO
COc1cc(-c2nn(-c3ccc(NC(=O)c4ccc(Cl)c(Cl)c4)cc3)cc2-c2ccncc2)ccc1Cl	NO
C=CCC(NC(=O)OC(C)(C)C)C(=O)NC(CCC(=O)OCc1ccc([N+](=O)[O-])cc1)C(N)=O (stereo not drawn) (Boc-[AllylGly]-Glu(ONb)-NH2; configuration not given here)	NO

q: What call does the record list for O=c1oc2cc(OS(=O)(=O)c3ccc(F)cc3)ccc2c2c1CCCCC2 ?
a: NO
